Measured target: Multidrug resistance-associated protein 1 (Homo sapiens)
Sequence (P33527 whole entry): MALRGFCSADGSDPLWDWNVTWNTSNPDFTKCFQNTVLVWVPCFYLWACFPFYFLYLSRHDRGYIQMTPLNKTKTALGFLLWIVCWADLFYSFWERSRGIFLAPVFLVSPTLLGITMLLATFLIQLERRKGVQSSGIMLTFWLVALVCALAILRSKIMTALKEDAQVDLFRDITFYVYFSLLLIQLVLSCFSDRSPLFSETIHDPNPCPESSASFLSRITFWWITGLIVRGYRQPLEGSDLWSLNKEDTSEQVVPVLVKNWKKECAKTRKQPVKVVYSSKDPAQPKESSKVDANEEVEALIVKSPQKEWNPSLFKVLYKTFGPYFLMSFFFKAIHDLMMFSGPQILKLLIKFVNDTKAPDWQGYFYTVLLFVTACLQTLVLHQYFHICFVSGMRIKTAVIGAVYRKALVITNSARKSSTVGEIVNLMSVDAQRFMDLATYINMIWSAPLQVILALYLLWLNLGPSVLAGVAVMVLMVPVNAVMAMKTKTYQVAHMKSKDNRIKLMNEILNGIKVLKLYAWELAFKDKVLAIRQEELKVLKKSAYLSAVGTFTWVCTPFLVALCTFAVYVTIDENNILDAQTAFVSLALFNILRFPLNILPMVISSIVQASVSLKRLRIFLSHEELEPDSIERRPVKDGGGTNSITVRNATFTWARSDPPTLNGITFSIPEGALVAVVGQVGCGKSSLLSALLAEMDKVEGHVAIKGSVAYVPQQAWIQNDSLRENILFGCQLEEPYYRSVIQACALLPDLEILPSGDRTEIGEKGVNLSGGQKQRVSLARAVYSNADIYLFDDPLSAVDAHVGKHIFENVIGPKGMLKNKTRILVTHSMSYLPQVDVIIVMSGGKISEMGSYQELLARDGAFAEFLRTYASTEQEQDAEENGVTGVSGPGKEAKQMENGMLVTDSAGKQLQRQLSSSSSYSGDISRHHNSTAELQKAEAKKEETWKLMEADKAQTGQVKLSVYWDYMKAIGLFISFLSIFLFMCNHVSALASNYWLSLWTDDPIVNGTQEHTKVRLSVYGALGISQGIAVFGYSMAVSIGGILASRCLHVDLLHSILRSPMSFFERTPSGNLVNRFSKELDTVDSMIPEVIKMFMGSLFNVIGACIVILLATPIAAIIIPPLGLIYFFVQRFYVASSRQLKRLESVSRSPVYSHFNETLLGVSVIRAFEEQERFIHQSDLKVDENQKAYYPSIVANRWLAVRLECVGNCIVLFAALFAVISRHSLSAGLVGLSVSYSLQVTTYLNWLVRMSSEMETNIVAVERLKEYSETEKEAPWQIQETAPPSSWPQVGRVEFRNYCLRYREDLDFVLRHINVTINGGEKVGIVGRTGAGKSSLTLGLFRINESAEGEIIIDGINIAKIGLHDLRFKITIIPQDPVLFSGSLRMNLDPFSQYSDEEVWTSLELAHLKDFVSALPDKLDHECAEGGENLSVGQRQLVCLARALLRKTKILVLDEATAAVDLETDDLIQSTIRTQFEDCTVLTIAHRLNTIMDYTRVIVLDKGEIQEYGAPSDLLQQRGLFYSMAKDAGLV
Method notes: Inhibition of human MRP1 in human T98G cells assessed as potentiation of doxorubicin induced cytotoxicity at 50 uM pre-incubated for 2 hrs before doxorubicin addition and measured 4 days after doxorubicin exposure by MTT assay relative to untreated control
Assay type: cell-based
Run conditions: 96 h

{"columns": ["Chemical smiles", "inhibition (INH)"],
 "data": [
  ["O=C(O)Cc1c(-c2ccccc2)n(C(=O)c2ccc(Cl)cc2)c2ccccc12", "Active"],
  ["COc1cccc2c(CC(=O)O)c(C)n(C(=O)c3ccc(Cl)cc3)c12", "Active"],
  ["CCc1c(CC(=O)O)c2ccccc2n1C(=O)c1ccc(Cl)cc1", "Active"]
]}

====

Quick record: IC50, Prostaglandin G/H synthase 1 (Ovis aries).

These solved cases illustrate the format of a correct answer.
{"columns": ["Chemical smiles", "Parameter measured", "Reported measurement"],
 "data": [
  ["CCc1c(CC(=O)O)c2ccccc2n1C(=O)c1ccc(Cl)cc1", "IC50", "> 400 µM"],
  ["CCc1cccc2c(CC(=O)O)cn(C(=O)c3ccc(Cl)cc3)c12", "IC50", "> 400 µM"],
  ["O=C(O)Cc1c(-c2ccccc2)n(C(=O)c2ccc(Cl)cc2)c2ccccc12", "IC50", "> 400 µM"],
  ["COc1cccc2c(CC(=O)O)c(C)n(C(=O)c3ccc(Cl)cc3)c12", "IC50", "> 400 µM"]
]}

# context switch: different compound, same IC50
Give Prostaglandin G/H synthase 1 (Ovis aries) IC50 for COc1ccc2c(CC(=O)O)c(C)n(C(=O)c3ccc(Cl)cc3)c2c1 > 200 µM

====

IC50: recorded values
Measured target: ATP-dependent translocase ABCB1 (Homo sapiens, UniProt P08183)
Sequence (P08183 whole entry): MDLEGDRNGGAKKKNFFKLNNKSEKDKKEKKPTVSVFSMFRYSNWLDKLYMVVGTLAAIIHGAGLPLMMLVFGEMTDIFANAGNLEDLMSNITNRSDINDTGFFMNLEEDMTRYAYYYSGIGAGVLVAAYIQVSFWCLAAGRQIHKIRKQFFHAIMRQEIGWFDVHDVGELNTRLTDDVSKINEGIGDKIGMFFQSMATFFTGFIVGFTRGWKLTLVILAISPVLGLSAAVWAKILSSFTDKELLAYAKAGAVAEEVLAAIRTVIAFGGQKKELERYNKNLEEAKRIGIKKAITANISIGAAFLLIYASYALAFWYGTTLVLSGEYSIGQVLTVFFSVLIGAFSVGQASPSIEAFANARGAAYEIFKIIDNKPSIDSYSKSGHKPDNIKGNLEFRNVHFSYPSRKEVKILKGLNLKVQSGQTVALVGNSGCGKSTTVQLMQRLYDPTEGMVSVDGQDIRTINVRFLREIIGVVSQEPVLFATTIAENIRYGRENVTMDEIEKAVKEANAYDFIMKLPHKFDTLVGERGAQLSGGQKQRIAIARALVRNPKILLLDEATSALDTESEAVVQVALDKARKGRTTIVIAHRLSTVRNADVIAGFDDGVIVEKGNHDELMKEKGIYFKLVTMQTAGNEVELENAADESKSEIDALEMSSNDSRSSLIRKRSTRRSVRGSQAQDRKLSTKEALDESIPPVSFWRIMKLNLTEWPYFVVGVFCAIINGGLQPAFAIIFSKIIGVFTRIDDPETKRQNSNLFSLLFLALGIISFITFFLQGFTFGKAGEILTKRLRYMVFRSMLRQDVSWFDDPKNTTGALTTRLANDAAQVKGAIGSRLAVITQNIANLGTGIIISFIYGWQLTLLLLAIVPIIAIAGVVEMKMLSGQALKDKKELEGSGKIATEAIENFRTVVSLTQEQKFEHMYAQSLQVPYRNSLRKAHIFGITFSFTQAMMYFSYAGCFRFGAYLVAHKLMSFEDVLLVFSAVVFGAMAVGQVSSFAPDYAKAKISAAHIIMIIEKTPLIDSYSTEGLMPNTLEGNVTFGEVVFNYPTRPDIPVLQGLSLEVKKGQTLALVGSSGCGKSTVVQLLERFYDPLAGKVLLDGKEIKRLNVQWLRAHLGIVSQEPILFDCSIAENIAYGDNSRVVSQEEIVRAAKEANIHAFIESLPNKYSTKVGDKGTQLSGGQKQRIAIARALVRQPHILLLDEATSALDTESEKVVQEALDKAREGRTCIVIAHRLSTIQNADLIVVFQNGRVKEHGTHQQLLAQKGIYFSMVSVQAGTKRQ
Method notes: Inhibition of human recombinant P-glycoprotein after 40 mins by Pgp-Glo assay
Give your result in µM as a bare value.

{"columns": ["Chemical smiles", "IC50 (µM)"],
 "data": [
  ["Cc1c(CC(=O)O)c2ccccc2n1C(=O)c1ccc(Cl)cc1", 20],
  ["COc1ccc2c(CC(=O)O)c(C)n(C(=O)c3ccc(Cl)cc3)c2c1", 9.8],
  ["COc1cccc2c(CC(=O)O)c(C)n(C(=O)c3ccc(Cl)cc3)c12", 15],
  ["CCc1cccc2c(CC(=O)O)cn(C(=O)c3ccc(Cl)cc3)c12", 17],
  ["CCc1c(CC(=O)O)c2ccccc2n1C(=O)c1ccc(Cl)cc1", 20]
]}

The record that follows has no IC50 shown yet.
For ATP-dependent translocase ABCB1 (Homo sapiens, UniProt P08183), provide IC50 of O=C(O)Cc1c(-c2ccccc2)n(C(=O)c2ccc(Cl)cc2)c2ccccc12 please. 18
